Biological target: MAGI2_5, Q86UL8
Sequence (Q86UL8 915-1017): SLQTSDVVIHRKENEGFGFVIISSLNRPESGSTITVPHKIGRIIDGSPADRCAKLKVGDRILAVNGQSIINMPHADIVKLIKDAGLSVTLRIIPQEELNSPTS
Experiment: holdup assay
Parameters: key: below the threshold = too weak to quantify, mostly under pKd 3.1 to 4
Conditions: plain residues with an end cap or a label only (N-terminal biotin on a linker: ado-ado)
Parameter pKd: see the listing below.
Simply state the number, no unit and no words.

Completed entries (count: 3):
LESTTVGTSV [KARS1, Q15046]
4.06
QSGLYESEEL [MYOT, Q9UBF9]
4.02
GIKKITSTAL [RPS6KA3, P51812]
3.95

Now for another entry.
# lookup: pKd of LKDDELKTKL [SLCO1A2, P46721] 3.75
